- Test system: 855422-203-R-J1-PDC spheroids with HUVEC/MSC, viability
- Test method notes: Anticancer human tumor 855422-203-R-J1-PDC patient-derived bladder carcinoma cell line growth inhibition [PI3K]
- Condition info: compound 0.1 µM; stronger effect = lower value
Reported property: viability, T/C

Illustrative cases are given below, each with its answer.
CC(Cn1ccc(-c2ccc(C#N)c(Cl)c2)n1)NC(=O)c1cc(C(C)O)[nH]n1 (stereo not drawn) :: 96.9% [middle of 4 runs]
COc1c(OCCCN2CCOCC2)ccc2c3n(c(=NC(=O)c4cnc(N)nc4)nc12)CCN3 :: 30.5% [middle of 8 runs]

Proceed to the following item.
Task: What does the data say about its viability, T/C? Entry: CC(Nc1ncnc2nc[nH]c12)c1cc2cccc(Cl)c2c(=O)n1-c1ccccc1 (stereo not drawn)
Output: 108% [middle of 8 runs]

---

- Test system: 855422-203-R-J1-PDC spheroids with HUVEC/MSC, viability
- Test method notes: Anticancer human tumor 855422-203-R-J1-PDC cell line growth inhibition [PI3K];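 also: agents incubated with spheroids for one week before read-out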
- Condition info: curve of first compound; second compound 0.1 µM
IC50 listing for selected compounds.

Illustrative cases are given below, each with its answer.
C=CC(=O)N1CCN(c2nc(=O)n(-c3c(C)ccnc3C(C)C)c3nc(-c4c(O)cccc4F)c(F)cc23)C(C)C1 (stereo unspecified) + CC(Nc1ncnc2nc[nH]c12)c1cc2cccc(Cl)c2c(=O)n1-c1ccccc1 :: > 10000 nM
CC(C)n1nc(-c2ccc3oc(N)nc3c2)c2c(N)ncnc21 + Cc1nc(NC(=O)N2CCCC2C(N)=O)sc1-c1ccnc(C(C)(C)C(F)(F)F)c1 :: 42.8 nM
C#Cc1c(F)ccc2cc(O)cc(-c3ncc4c(N5CC6CCC(C5)N6)nc(OCC56CCCN5CC(F)C6)nc4c3F)c12 (stereo unspecified) + CC(Nc1ccc2c(c1)OCCn1cc(N3C(=O)OCC3C(F)F)nc1-2)C(N)=O :: > 10000 nM
Cn1cnc2c(F)c(Nc3ccc(Br)cc3Cl)c(C(=O)NOCCO)cc21 + CC(Nc1ccc2c(c1)OCCn1cc(N3C(=O)OCC3C(F)F)nc1-2)C(N)=O :: 769 nM

Task: Notebook: pull reported IC50 for 855422-203-R-J1-PDC spheroids with HUVEC/MSC, viability, entry CC(=O)c1c(C)c2cnc(Nc3ccc(N4CCNCC4)cn3)nc2n(C2CCCC2)c1=O + Cc1nc(NC(=O)N2CCCC2C(N)=O)sc1-c1ccnc(C(C)(C)C(F)(F)F)c1
Output: > 100 nM

Task: Notebook: pull reported IC50 for 855422-203-R-J1-PDC spheroids with HUVEC/MSC, viability, entry CC(Cn1ccc(-c2ccc(C#N)c(Cl)c2)n1)NC(=O)c1cc(C(C)O)[nH]n1 (stereo unspecified) + CC(Nc1ccc2c(c1)OCCn1cc(N3C(=O)OCC3C(F)F)nc1-2)C(N)=O
Output: > 10000 nM

---

- Test system: 855422-203-R-J1-PDC spheroids with HUVEC/MSC, viability
- Test method notes: Anticancer human tumor 855422-203-R-J1-PDC cell line growth inhibition [PI3K];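 also: agents incubated with spheroids for one week before read-out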
- Condition info: curve of first compound; second compound 0.316 µM
Reported property: IC50 (nM)
Hi! Could you send only the number? It should be in nM, unit omitted.

CC(C)n1nc(-c2ccc3oc(N)nc3c2)c2c(N)ncnc21 + CC(Nc1ncnc2nc[nH]c12)c1cc2cccc(Cl)c2c(=O)n1-c1ccccc1 :: 46.5

Proceed to the following item.
Task: What does the data say about its IC50? Entry: Cn1nccc1Nc1nccc(-c2ccn(C(CO)c3ccc(Cl)c(F)c3)c(=O)c2)n1 (stereo not drawn) + Cc1nc(NC(=O)N2CCCC2C(N)=O)sc1-c1ccnc(C(C)(C)C(F)(F)F)c1
Output: 6990

---

- Test system: 855422-203-R-J1-PDC spheroids with HUVEC/MSC, viability
- Test method notes: Anticancer human tumor 855422-203-R-J1-PDC cell line growth inhibition [PI3K];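 also: agents incubated with spheroids for one week before read-out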
- Condition info: curve of first compound; second compound 0.01 µM
pIC50 listing for selected molecules.
The meaning of pIC50 here: minus log10 of the concentration in molar units.

CC(C)n1nc(-c2ccc3oc(N)nc3c2)c2c(N)ncnc21 + CC(Nc1ccc2c(c1)OCCn1cc(N3C(=O)OCC3C(F)F)nc1-2)C(N)=O :: 7.36

Task: Notebook: pull reported pIC50 for 855422-203-R-J1-PDC spheroids with HUVEC/MSC, viability, entry CC(C)NCC(C(=O)N1CCN(c2ncnc3c2C(C)CC3O)CC1)c1ccc(Cl)cc1 (stereo unspecified) + COc1c(OCCCN2CCOCC2)ccc2c3n(c(=NC(=O)c4cnc(N)nc4)nc12)CCN3
Output: 5.72

Task: Notebook: pull reported pIC50 for 855422-203-R-J1-PDC spheroids with HUVEC/MSC, viability, entry CCN1CCN(Cc2ccc(Nc3ncc(F)c(-c4cc(F)c5nc(C)n(C(C)C)c5c4)n3)nc2)CC1 + CC(Nc1ccc2c(c1)OCCn1cc(N3C(=O)OCC3C(F)F)nc1-2)C(N)=O
Output: 6.10

Task: Notebook: pull reported pIC50 for 855422-203-R-J1-PDC spheroids with HUVEC/MSC, viability, entry Cn1ncc(Cl)c1-c1cc(C(=O)NC(CN)Cc2cccc(F)c2)sc1Cl (stereo unspecified) + CC(Nc1ccc2c(c1)OCCn1cc(N3C(=O)OCC3C(F)F)nc1-2)C(N)=O
Output: 6.15

Task: Notebook: pull reported pIC50 for 855422-203-R-J1-PDC spheroids with HUVEC/MSC, viability, entry Cn1nccc1Nc1nccc(-c2ccn(C(CO)c3ccc(Cl)c(F)c3)c(=O)c2)n1 (stereo unspecified) + CC(Nc1ccc2c(c1)OCCn1cc(N3C(=O)OCC3C(F)F)nc1-2)C(N)=O
Output: 5.17

Task: Notebook: pull reported pIC50 for 855422-203-R-J1-PDC spheroids with HUVEC/MSC, viability, entry Cn1nccc1Nc1nccc(-c2ccn(C(CO)c3ccc(Cl)c(F)c3)c(=O)c2)n1 (stereo unspecified) + COc1c(OCCCN2CCOCC2)ccc2c3n(c(=NC(=O)c4cnc(N)nc4)nc12)CCN3
Output: 5.30

Task: Notebook: pull reported pIC50 for 855422-203-R-J1-PDC spheroids with HUVEC/MSC, viability, entry CC1(C)CCC(CN2CCN(c3ccc(C(=O)NS(=O)(=O)c4ccc(NCC5CCOCC5)c([N+](=O)[O-])c4)c(Oc4cnc5[nH]ccc5c4)c3)CC2)=C(c2ccc(Cl)cc2)C1 + CC(Nc1ccc2c(c1)OCCn1cc(N3C(=O)OCC3C(F)F)nc1-2)C(N)=O
Output: 5.35

Task: Notebook: pull reported pIC50 for 855422-203-R-J1-PDC spheroids with HUVEC/MSC, viability, entry CC(C)NCC(C(=O)N1CCN(c2ncnc3c2C(C)CC3O)CC1)c1ccc(Cl)cc1 (stereo unspecified) + CC(Nc1ccc2c(c1)OCCn1cc(N3C(=O)OCC3C(F)F)nc1-2)C(N)=O
Output: 5.95

---

- Test system: 855422-203-R-J1-PDC spheroids with HUVEC/MSC, viability
- Test method notes: Anticancer human tumor 855422-203-R-J1-PDC cell line growth inhibition [PI3K];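 also: agents incubated with spheroids for one week before read-out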
- Condition info: curve of first compound; second compound 0.1 µM
- From the text: Combinatorial screen of targeted agents with the PI3K inhibitors inavolisib, alpelisib, duvelisib, and copanlisib in multi-cell type tumor spheroids A high-throughput screen of multi-cell type tumor spheroids was designed to identify active combinations of targeted small molecules and PI3K pathway inhibitors. […] Compounds. […] If the clinical Cmax for an agent had not been determined, the highest concentration tested was 10 microM. […]
Reported property: pIC50
The meaning of pIC50 here: minus log10 of the concentration in molar units.

Cn1cnc2c(F)c(Nc3ccc(Br)cc3Cl)c(C(=O)NOCCO)cc21 + Cc1nc(NC(=O)N2CCCC2C(N)=O)sc1-c1ccnc(C(C)(C)C(F)(F)F)c1 :: 5.59

Proceed to the following item.
Task: Notebook: pull reported pIC50 for 855422-203-R-J1-PDC spheroids with HUVEC/MSC, viability, entry CCCS(=O)(=O)Nc1ccc(F)c(C(=O)c2c[nH]c3ncc(-c4ccc(Cl)cc4)cc23)c1F + Cc1nc(NC(=O)N2CCCC2C(N)=O)sc1-c1ccnc(C(C)(C)C(F)(F)F)c1
Output: 5.41

---

- Tested on: 855422-203-R-J1-PDC spheroids with HUVEC/MSC, viability
- Test method notes: Anticancer human tumor 855422-203-R-J1-PDC cell line growth inhibition [PI3K];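 also: agents incubated with spheroids for one week before read-out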;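 as to viability, T/C: 100% = DMSO vehicle-treated control wells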
- Condition info: second compound 10 µM; first compound 0.0316 µM; stronger effect = lower value
viability, T/C listing for selected compounds.

CCCS(=O)(=O)Nc1ccc(F)c(C(=O)c2c[nH]c3ncc(-c4ccc(Cl)cc4)cc23)c1F + Cc1nc(NC(=O)N2CCCC2C(N)=O)sc1-c1ccnc(C(C)(C)C(F)(F)F)c1 :: 25.3%
CC1(C)CCC(CN2CCN(c3ccc(C(=O)NS(=O)(=O)c4ccc(NCC5CCOCC5)c([N+](=O)[O-])c4)c(Oc4cnc5[nH]ccc5c4)c3)CC2)=C(c2ccc(Cl)cc2)C1 + CC(Nc1ncnc2nc[nH]c12)c1cc2cccc(Cl)c2c(=O)n1-c1ccccc1 :: 97.2%
CNC(=O)c1ccc(N2C(=S)N(c3ccc(C#N)c(C(F)(F)F)c3)C(=O)C2(C)C)cc1F + Cc1nc(NC(=O)N2CCCC2C(N)=O)sc1-c1ccnc(C(C)(C)C(F)(F)F)c1 :: 24.1%
CNC(=O)c1ccc(N2C(=S)N(c3ccc(C#N)c(C(F)(F)F)c3)C(=O)C2(C)C)cc1F + CC(Nc1ncnc2nc[nH]c12)c1cc2cccc(Cl)c2c(=O)n1-c1ccccc1 :: 89%
C#Cc1c(F)ccc2cc(O)cc(-c3ncc4c(N5CC6CCC(C5)N6)nc(OCC56CCCN5CC(F)C6)nc4c3F)c12 (stereo not given) + Cc1nc(NC(=O)N2CCCC2C(N)=O)sc1-c1ccnc(C(C)(C)C(F)(F)F)c1 :: 24.6%
CCN1CCN(Cc2ccc(Nc3ncc(F)c(-c4cc(F)c5nc(C)n(C(C)C)c5c4)n3)nc2)CC1 + CC(Nc1ncnc2nc[nH]c12)c1cc2cccc(Cl)c2c(=O)n1-c1ccccc1 :: 55.2%
C[C@@H](NC(=O)c1ncnc(N)c1Cl)c1ncc(C(=O)Nc2cc(C(F)(F)F)c(Cl)cn2)s1 + CC(Nc1ncnc2nc[nH]c12)c1cc2cccc(Cl)c2c(=O)n1-c1ccccc1 :: 82.7%
C[C@@H](NC(=O)c1ncnc(N)c1Cl)c1ncc(C(=O)Nc2cc(C(F)(F)F)c(Cl)cn2)s1 + Cc1nc(NC(=O)N2CCCC2C(N)=O)sc1-c1ccnc(C(C)(C)C(F)(F)F)c1 :: 25%

Task: What does the data say about its viability, T/C? Entry: CC1(C)CCC(CN2CCN(c3ccc(C(=O)NS(=O)(=O)c4ccc(NCC5CCOCC5)c([N+](=O)[O-])c4)c(Oc4cnc5[nH]ccc5c4)c3)CC2)=C(c2ccc(Cl)cc2)C1 + Cc1nc(NC(=O)N2CCCC2C(N)=O)sc1-c1ccnc(C(C)(C)C(F)(F)F)c1
Output: 25.8%

Task: What does the data say about its viability, T/C? Entry: CC1(C)CCC(Nc2ncc(C(F)(F)F)c(-c3c[nH]c4c(P(C)(C)=O)c(C#N)ccc34)n2)CN1 (stereo not given) + CC(Nc1ncnc2nc[nH]c12)c1cc2cccc(Cl)c2c(=O)n1-c1ccccc1
Output: 23.8%
